molecular target: recombinant cynomolgus Aggrecan G1-IGD-G2 (cynomolgus); test: periplasmic extract ELISA
ENDPOINT_NAME: OD 450 nm (OD 450 nm)

(1) C0101PMP604G01 (VHH, not shown: large carriers) VHH: DVQLVESGGGLVQPGGSLRLSCAASGRTFSSYTMGWFRQAPGKEREFVAAISWSGRTTYYADSVKGRFTISRDNSKNTVYLQMNSLRPEDTAVYYCAAYRRVRYTNLEVWDYWGQGTLVTVSS
(2) C0101PMP112A03 (VHH, not shown: large carriers) VHH: EVQLVESGGGLVQPGGSLRLSCAASGSIFSNRFMYWYRQAPGKQRELVASITLSGSTNYADSVKGRFTISRDNAKNTVYLQMNSLKPEDTAVYYCNTFLQNSFYWGQGTQVTVSS
Select one: 1 or 2 . Criterion: greater recorded OD 450 nm. Use the label to indicate which entry you chose. 2
(2: 2.36 OD 450 nm, 1: 1.25 OD 450 nm)
